The compounds listed here are annotated with their pIC50.
Target: SMYD3 (Homo sapiens (Human))
Test: SMYD3 biochemical assay (SPA, 3H-SAM methylation of MEKK2 protein substrate)
Settings: read-out: SMYD3 Biochem IC50*
pIC50: −log10 of the molar value.

| compound | measured-target | pIC50 |
| --- | --- | --- |
| O=C(N[C@H]1C[C@H]2CC[C@@H](C1)N2S(=O)(=O)c1ccc(CN2CCCC2)cc1)c1cc(C2CC2)on1 [compound 953] | SMYD3 (Homo sapiens (Human)) | 7.24 |
| CCc1cc(C(=O)N[C@H]2C[C@H]3CC[C@@H](C2)N3S(=O)(=O)[C@H]2CC[C@H](NCCO)CC2)no1 [compound 788] | SMYD3 (Homo sapiens (Human)) | 8.85 |
| CC1CN(S(=O)(=O)N2[C@@H]3CC[C@H]2C[C@@H](NC(=O)c2cc(C4CC4)on2)C3)C(C)CN1 (stereo partly shown) [compound 907] | SMYD3 (Homo sapiens (Human)) | 7.75 |
| CN(CCCN1CCOCC1)C1CCN(S(=O)(=O)N2[C@@H]3CC[C@H]2C[C@@H](NC(=O)c2cc(C4CC4)on2)C3)CC1 [compound 936] | SMYD3 (Homo sapiens (Human)) | 7.36 |

----------
Target: SMYD3 (Homo sapiens (Human))
Assay: SMYD3 biochemical assay (SPA, 3H-SAM methylation of MEKK2 protein substrate)
Details: read-out: SMYD3 Biochem IC50 (μM)*

| molecule | limit-qualifier | IC50 [µM] |
| --- | --- | --- |
| COC(=O)CCS(=O)(=O)N1CC[C@H](NC(=O)c2cc(C3CC3)on2)C[C@H]1C | > | 10 |
| N[C@H]1CC[C@H](C(=O)N2CCC(NC(=O)c3cc(C4CC4)on3)CC23CCC3)CC1 (some centres unmarked) | = | 2.2 |
| N[C@H]1CC[C@H](C(=O)N2CCC(NC(=O)c3cc(C4CC4)on3)C(C(F)(F)F)C2)CC1 (some centres unmarked) | = | 2.04 |
| C[C@H]1C[C@@H](NC(=O)c2cc(C3CC3)on2)CCN1S(=O)(=O)CC(F)(F)F | = | 3.26 |
| NC[C@H](Cc1ccc(O)c(I)c1)C(=O)N1CCC(NC(=O)c2cc(C3CC3)on2)CC1 | = | 0.0423 |
| CC(C)OCCS(=O)(=O)N1CC[C@H](NC(=O)c2cc(C3CC3)on2)C[C@@H]1C | = | 3.46 |
| N[C@@H](Cc1ccc(O)cc1)C(=O)N1CCC(NC(=O)c2cc(C3CC3)on2)CC1 | = | 0.486 |
| O=C(NC1CCN(C(=O)C2CCNCC2)CC1)c1cc(C2CC2)on1 | = | 8.55 |

----------
Quick reference: log10 IC50 of the listed items.
Molecular target: UniProt:Q9H7B4
Assay: SMYD3 biochemical assay (SPA, 3H-SAM methylation of MEKK2 protein substrate)
Details: read-out: SMYD3 Biochem IC50 (μM)*
readout-type: log10 IC50 (log10 of the value in µM)

| molecule | log10 IC50 |
| --- | --- |
| C[C@H]1C[C@@H](NC(=O)c2cc(C3CC3)on2)CCN1S(=O)(=O)N1CCN(C)CC1 [Cpd. No. 279] | -1.09 |
| C[C@@H]1C[C@H](NC(=O)c2cc(C3CC3)on2)CCN1S(=O)(=O)N(C)C [compound 328] | 0.84 |
| C[C@H]1CC(NC(=O)c2cc(C3CC3)on2)CCN1C(=O)C1CC2(CCNC2)C1 (some centres unmarked) [compound 178] | 0.31 |
| C[C@@H]1CC(NC(=O)c2cc(C3CC3)on2)CCN1C(=O)[C@H]1C[C@@H](N)C1 (some centres unmarked) [compound 87] | 0.51 |
| CC[C@H]1CN(C(=O)CC2CCNCC2)CC[C@@H]1NC(=O)c1cc(C2CC2)on1 [compound 76] | -0.27 |
| COC(=O)CCS(=O)(=O)N1CC[C@H](NC(=O)c2cc(C3CC3)on2)C[C@@H]1C [compound 280] | 0.69 |

----------
Biological target: SMYD3 (Homo sapiens (Human), UniProt Q9H7B4)
Sequence (Q9H7B4 whole entry): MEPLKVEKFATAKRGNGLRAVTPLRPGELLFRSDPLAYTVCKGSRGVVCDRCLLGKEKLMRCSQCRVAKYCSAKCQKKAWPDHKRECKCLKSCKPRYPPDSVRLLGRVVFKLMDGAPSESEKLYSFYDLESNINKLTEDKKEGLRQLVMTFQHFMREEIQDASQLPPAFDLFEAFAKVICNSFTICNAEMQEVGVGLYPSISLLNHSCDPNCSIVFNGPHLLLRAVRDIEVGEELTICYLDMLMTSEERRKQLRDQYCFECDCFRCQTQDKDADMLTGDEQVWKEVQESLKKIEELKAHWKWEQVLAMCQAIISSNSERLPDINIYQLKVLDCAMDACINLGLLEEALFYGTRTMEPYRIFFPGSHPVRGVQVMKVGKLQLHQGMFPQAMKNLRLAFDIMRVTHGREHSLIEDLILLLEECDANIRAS
Assay: SMYD3 biochemical assay (SPA, 3H-SAM methylation of MEKK2 protein substrate)
Details: read-out: SMYD3 Biochem IC50 (μM)*

| molecule | limit-qualifier | IC50 / µM |
| --- | --- | --- |
| C[C@@H]1C[C@@H](NC(=O)c2cc(C3CC3)on2)CCN1S(=O)(=O)c1cccc(C#N)c1 | = | 0.278 |
| C[C@@H]1C[C@@H](NC(=O)c2cc(C3CC3)on2)CCN1C(=O)CC(C)(C)CN | = | 3.15 |
| C[C@@H]1C[C@@H](NC(=O)c2cc(C3CC3)on2)CCN1S(=O)(=O)CC(F)(F)F | > | 10 |
| CC(C)CN(C)c1ccc(S(=O)(=O)N2CC[C@@H](NC(=O)c3cc(C4CC4)on3)C[C@H]2C)cn1 | > | 10 |
| C[C@H]1CC(NC(=O)c2cc(C3CC3)on2)CCN1C(=O)N1CCC(N)CC1 (stereo partly shown) | = | 2.23 |
| C[C@@H]1C[C@H](NC(=O)c2cc(C3CC3)on2)CCN1C(=O)CC(CN)c1ccccc1 (stereo partly shown) | = | 4.73 |
| CC(C)CS(=O)(=O)N1CC[C@H](NC(=O)c2cc(C3CC3)on2)C[C@@H]1C | = | 0.472 |
| C[C@H]1C[C@H](NC(=O)c2cc(C3CC3)on2)CCN1C(=O)C1CCCC(CN)C1 (stereo partly shown) | = | 5.89 |
| C[C@H]1CN(S(=O)(=O)CCN)CCC1NC(=O)c1cc(C2CC2)on1 (stereo partly shown) | = | 0.59 |
| N[C@H]1CC[C@H](C(=O)N2CC3CC2CC3NC(=O)c2cc(C3CC3)on2)CC1 (stereo partly shown) | = | 1.17 |
| N[C@H]1CC[C@@H](C(=O)N2[C@@H]3CC[C@H]2C[C@H](NC(=O)c2cc(C4CC4)on2)C3)CC1 | > | 10 |
| C[C@H]1CN(C(=O)[C@H]2CC[C@H](N)CC2)[C@@H](C)C[C@H]1NC(=O)c1cc(C2CC2)on1 | = | 1.95 |
| C[C@@H]1CN(C(=O)CCCN)CC[C@@H]1NC(=O)c1cc(C2CC2)on1 | = | 2.87 |
| C[C@@H]1C[C@@H](NC(=O)c2cc(C3CC3)on2)CCN1C(=O)CC1(CN)CCCCC1 | = | 8.52 |
| CNc1ccc(S(=O)(=O)N2CC[C@@H](NC(=O)c3cc(C4CC4)on3)C[C@@H]2C)cn1 | > | 10 |
| CC1(C)CC(NC(=O)c2cc(C3CC3)on2)CCN1C(=O)[C@H]1CC[C@H](N)CC1 (stereo partly shown) | = | 1.31 |

----------
Molecular target: SMYD3 (Homo sapiens (Human), UniProt Q9H7B4)
Assay: SMYD3 biochemical assay (SPA, 3H-SAM methylation of MEKK2 protein substrate)
Details: read-out: SMYD3 Biochem IC50 (μM)*
IC50 vs 0.9 µM: less than gives 1.0; not less than gives 0.0.

| compound | assigned-category |
| --- | --- |
| C[C@@H]1CC(NC(=O)c2cc(C3CC3)on2)CCN1C(=O)N1CCC(N)CC1 (some centres unmarked) | 1.0 |
| C[C@H]1CC(NC(=O)c2cc(C3CC3)on2)CCN1C(=O)[C@H]1CC[C@H](N)CO1 (some centres unmarked) | 0.0 |
| C[C@H]1CC(NC(=O)c2cc(C3CC3)on2)CCN1C(=O)CC1(O)CCNCC1 (some centres unmarked) | 0.0 |
| NCCS(=O)(=O)N1[C@@H]2CC[C@H]1C[C@H](NC(=O)c1cc(C3CC3)on1)C2 | 1.0 |
| O=C(NC1CCN(C(=O)[C@@H](CO)Cc2ccc(O)c(I)c2)CC1)c1cc(C2CC2)on1 | 0.0 |
| C[C@H]1C[C@H](NC(=O)c2cc(C3CC3)on2)CCN1S(=O)(=O)c1cn(C)cn1 | 0.0 |
| CCCC1CC(NC(=O)c2cc(C3CC3)on2)CCN1C(=O)[C@H]1CC[C@H](N)CC1 (some centres unmarked) | 1.0 |
| C[C@H]1C[C@H](NC(=O)c2cc(C3CC3)on2)CCN1S(=O)(=O)c1ccc(NCCN)nc1 | 1.0 |

----------
Target: SMYD3 (Homo sapiens (Human), UniProt Q9H7B4)
Experiment: SMYD3 cell assay (Trimethyl-MEKK2 In-Cell Western in 293T/17 cells)
Format: cell-based
Details: average of n = 1 to n = 50; read-out: SMYD3 Cell IC50
pIC50: −log10 of the molar value.
Consider the following compounds and their measured pIC50 readings.
readout-type: pIC50

| compound | measured-target | numeric-readout |
| --- | --- | --- |
| C[C@@H]1CN(S(=O)(=O)CC2CCNCC2)[C@H](C)C[C@@H]1NC(=O)c1cc(C2CC2)on1 | SMYD3 (Homo sapiens (Human), UniProt Q9H7B4) | 6.39 |
| C[C@H]1C[C@@H](NC(=O)c2cc(C3CC3)on2)CCN1S(=O)(=O)N1CCCN(C)CC1 | SMYD3 (Homo sapiens (Human), UniProt Q9H7B4) | 6.59 |
| C[C@H]1CN(S(=O)(=O)CC2CCN(CCC(F)(F)F)CC2)CC[C@H]1NC(=O)c1cc(C2CC2)on1 | SMYD3 (Homo sapiens (Human), UniProt Q9H7B4) | 6.13 |
| CN(C1CCNCC1)S(=O)(=O)N1CC[C@H](NC(=O)c2cc(C3CC3)on2)C[C@H]1Cc1ccccc1 | SMYD3 (Homo sapiens (Human), UniProt Q9H7B4) | 5.52 |
| C[C@@H]1C[C@H](NC(=O)c2cc(C3CC3)on2)CCN1C(=O)c1ccc2c(c1)ncn2C | SMYD3 (Homo sapiens (Human), UniProt Q9H7B4) | 5.62 |
| C[C@@H]1C[C@H](NC(=O)c2cc(C3CC3)on2)CCN1C(=O)c1ccc(OCCN2CCNCC2)cc1 | SMYD3 (Homo sapiens (Human), UniProt Q9H7B4) | 5.01 |
| C[C@H]1C[C@@H](NC(=O)c2cc(C3CC3)on2)CCN1S(=O)(=O)N1CCNC(Cc2ccccc2)C1 (stereo partly drawn) | SMYD3 (Homo sapiens (Human), UniProt Q9H7B4) | 5.69 |
| C[C@H]1C[C@@H](NC(=O)c2cc(C3CC3)on2)CCN1S(=O)(=O)CCCNc1ccccc1 | SMYD3 (Homo sapiens (Human), UniProt Q9H7B4) | 5.81 |
| C[C@H]1C[C@@H](NC(=O)c2cc(C3CC3)on2)CCN1S(=O)(=O)N1CCN(C)[C@H](CCO)C1 | SMYD3 (Homo sapiens (Human), UniProt Q9H7B4) | 5.69 |
| C[C@H]1C[C@@H](NC(=O)c2cc(C3CC3)on2)CCN1S(=O)(=O)NCc1c(F)cccc1Cl | SMYD3 (Homo sapiens (Human), UniProt Q9H7B4) | 5.43 |
| C[C@H]1CN(S(=O)(=O)N2CCN(C)CC2)[C@@H](C)C[C@H]1NC(=O)c1cc(C2CC2)on1 | SMYD3 (Homo sapiens (Human), UniProt Q9H7B4) | 5.88 |
| O=C(N[C@H]1C[C@H]2CC[C@@H](C1)N2S(=O)(=O)N1CCNC(CO)C1)c1cc(C2CC2)on1 (stereo partly drawn) | SMYD3 (Homo sapiens (Human), UniProt Q9H7B4) | 6.68 |
| CN(C1CCNCC1)S(=O)(=O)N1[C@@H]2CC[C@H]1C[C@H](NC(=O)c1cc(C3CC3)on1)C2 | SMYD3 (Homo sapiens (Human), UniProt Q9H7B4) | 5.61 |
| O=C(N[C@H]1C[C@H]2CCC[C@@H](C1)N2S(=O)(=O)CC1CCNCC1)c1cc(C2CC2)on1 | SMYD3 (Homo sapiens (Human), UniProt Q9H7B4) | 5.78 |
| C[C@@H]1C[C@H](NC(=O)c2cc(C3CC3)on2)CCN1C(=O)c1ccc(C2CCNCC2)cc1 | SMYD3 (Homo sapiens (Human), UniProt Q9H7B4) | 6.52 |
